testedSystem: Cytochrome P450 2C19 (Homo sapiens)
assayText: Cytochrome panel assay with activity outcomes
conditionNotes: recombinant CYP, pro-luciferin dealkylation, luminescence, p450-cyp2c19; series mostly up to 57.1 µM
In all, about 16,000 compounds went through this assay and about 5,800 (36%) were called active. About 23% were inconclusive and are not listed. This is one part of the list.
readoutName: AC50

Reference set (5 entries):
[[record]]
compound = "BrC(c1cccc2ccccc12)c1cccc2ccccc12"
reportedresult = "1.26 µM (active)"

[[record]]
compound = "O=C(Cc1ccc(Cl)cc1)NNC(=O)Nc1cccc2ccccc12"
reportedresult = "inactive"

[[record]]
compound = "CC(C)=C[C@H]1[C@@H](C(=O)Oc2ccccc2C(C)C)C1(C)C"
reportedresult = "1.26 µM (active)"

[[record]]
compound = "O=C(Cc1ncc(C(F)(F)F)cc1Cl)Nc1cccc(Br)c1"
reportedresult = "2.82 µM (active)"

[[record]]
compound = "Cc1cnc(NC(=O)CCCc2nc3ccccc3s2)s1"
reportedresult = "7.94 µM (active)"


Query: Look up AC50 of COc1cc2c(cc1OC)C(C(=O)Nc1ccc3c(c1)OCCO3)C(c1cccnc1)N(C)C2=O (centres undefined) and report it.
Result: inactive

Query: Look up AC50 of CCNC(=O)C/C(C)=N/NC(=O)C12CC3CC(CC(C3)C1)C2 and report it.
Result: inactive

Query: Look up AC50 of CCC1OC23CCCCC2C(C#N)(C(=N)O3)C1(C#N)C#N (centres undefined) and report it.
Result: 17.8 µM (active)

* * *

testedSystem: Cytochrome P450 2C19 (Homo sapiens) (UniProt P33261)
Sequence (P33261 whole entry, looked up): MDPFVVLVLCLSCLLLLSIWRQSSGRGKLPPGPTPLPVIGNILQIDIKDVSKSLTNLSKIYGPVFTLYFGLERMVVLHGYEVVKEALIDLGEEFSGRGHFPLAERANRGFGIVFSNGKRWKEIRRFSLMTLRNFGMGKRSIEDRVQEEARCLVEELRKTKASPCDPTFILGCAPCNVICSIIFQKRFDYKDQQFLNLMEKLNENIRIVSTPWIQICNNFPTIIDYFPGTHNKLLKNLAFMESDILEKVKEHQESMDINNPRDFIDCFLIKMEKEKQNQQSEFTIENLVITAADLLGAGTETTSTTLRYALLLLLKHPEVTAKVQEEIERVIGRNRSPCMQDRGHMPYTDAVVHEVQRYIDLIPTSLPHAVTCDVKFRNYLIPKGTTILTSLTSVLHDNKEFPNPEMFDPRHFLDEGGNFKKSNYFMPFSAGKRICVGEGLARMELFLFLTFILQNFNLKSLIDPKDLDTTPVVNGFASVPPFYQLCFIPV
assayText: Cytochrome panel assay with activity outcomes
conditionNotes: recombinant CYP, pro-luciferin dealkylation, luminescence, p450-cyp2c19; series mostly up to 57.1 µM
Among all 16,000 compounds or so, about 5,800 (36%) were called active. Roughly 23% stayed inconclusive and do not appear here. Some of the results follow.
readoutName: AC50

[[record]]
compound = "C[C@@H](C(=O)Nc1ccc2ccccc2c1)[C@@H]1C[C@@]1(C)[C@@H](NS(=O)(=O)c1ccc(-c2ccccc2)cc1)c1ccccc1"
testedsystem = "Cytochrome P450 2C19 (Homo sapiens) (UniProt P33261)"
reportedresult = "inactive"

[[record]]
compound = "Cn1cnc2c(NCc3ccccc3)nc(NCCO)nc21"
testedsystem = "Cytochrome P450 2C19 (Homo sapiens) (UniProt P33261)"
reportedresult = "inactive"

[[record]]
compound = "Cn1c(SCC(=O)N/N=C/C=C\\c2ccco2)nc2ccccc21"
testedsystem = "Cytochrome P450 2C19 (Homo sapiens) (UniProt P33261)"
reportedresult = "14.1 µM (active)"

[[record]]
compound = "O=C(c1cccc(F)c1)N1CCC2(CC1)CCN(c1ccc(-c3ccccc3)cc1)CC2"
testedsystem = "Cytochrome P450 2C19 (Homo sapiens) (UniProt P33261)"
reportedresult = "inactive"


Please look at the following compound next.
Query: Look up AC50 of CCC(c1nnnn1CC1CCCO1)N(CCN1CCOCC1)Cc1cc2cc(C)ccc2[nH]c1=O (stereo not given) and report it.
Result: inactive

* * *

testedSystem: Cytochrome P450 2C19 (Homo sapiens) (UniProt P33261)
assayText: Cytochrome panel assay with activity outcomes
conditionNotes: recombinant CYP, pro-luciferin dealkylation, luminescence, p450-cyp2c19; series mostly up to 57.1 µM
In all, about 16,000 compounds went through this assay and about 5,800 (36%) were called active. Another 23% or so got no clear call; they are omitted. Calls follow the shape of the dose curve; as a rule, active = well fitted curve in the direction sought with a large enough effect; inconclusive = small, poorly fitted or top-dose-only effect, or effect the other way; inactive = no such curve, though single readings can be large or run the other way. The list shows a part of the results.
Respond with a class label; see active, inactive

Example entries begin here.
[[record]]
linenotation = "Cn1c(-c2ccc(CN3CCCCC3)o2)nc2ccccc21"
cat = "inactive"

[[record]]
linenotation = "CCC(CC)c1nnc(NC(=O)c2cccc(S(=O)(=O)N3CCc4ccccc43)c2)s1"
cat = "active"

[[record]]
linenotation = "N#Cc1cccc(NC(=O)N2CC[C@@]3(CCCN(C(=O)c4ccco4)C3)C2)c1"
cat = "inactive"

[[record]]
linenotation = "Cc1cc2nc(-c3ccc(SCC(=O)N4CCc5ccccc54)nc3)[nH]c2cc1C"
cat = "active"


Now consider a different compound.
Query: Per the records of this test, what outcome belongs to COc1ccc(Oc2ncc3nc(-c4cccs4)c(=O)n(-c4ccccc4)c3n2)cc1 ?
Result: inactive

* * *

testedSystem: Cytochrome P450 2C19 (Homo sapiens)
assayText: Cytochrome panel assay with activity outcomes
conditionNotes: recombinant CYP, pro-luciferin dealkylation, luminescence, p450-cyp2c19; series mostly up to 57.1 µM
The whole screen tested about 16,000 compounds, of which about 5,800 (36%) were called active. Not shown: some 23% with an inconclusive outcome. The list shows a part of the results.
readoutName: AC50

Reference set (6 entries):
[[record]]
compound = "COc1ccc(N2C(=O)NC(NC(=O)c3ccncc3)(C(F)(F)F)C2=O)cc1 (stereo not given)"
readoutname = "AC50"
reportedresult = "6.31 µM (active)"

[[record]]
compound = "O=C(O)c1cccnc1Nc1cccc(C(F)(F)F)c1"
readoutname = "AC50"
reportedresult = "inactive"

[[record]]
compound = "Cc1cnc(CNc2ccnc(-c3cccc(NS(C)(=O)=O)c3)n2)cn1"
readoutname = "AC50"
reportedresult = "inactive"

[[record]]
compound = "Oc1ccc(/C=N/NC(=S)NCc2ccco2)cc1"
readoutname = "AC50"
reportedresult = "10 µM (active)"

[[record]]
compound = "Cc1noc(C)c1-c1nc(NC2CCNCC2)c2ccccc2n1"
readoutname = "AC50"
reportedresult = "inactive"

[[record]]
compound = "CCCc1ccc(Oc2cc(C)nc(N3CCOCC3)n2)cc1"
readoutname = "AC50"
reportedresult = "11.2 µM (active)"


Query: Write down the reported AC50 (system: Cytochrome P450 2C19 (Homo sapiens)) of Cc1noc(C)c1-c1nccc(Nc2ccc(F)cc2)n1
Result: 3.98 µM (active)

* * *

testedSystem: Cytochrome P450 2C19 (Homo sapiens)
assayText: Cytochrome panel assay with activity outcomes
conditionNotes: recombinant CYP, pro-luciferin dealkylation, luminescence, p450-cyp2c19; series mostly up to 57.1 µM
In all, about 16,000 compounds went through this assay and about 5,800 (36%) were called active. Another 23% or so got no clear call; they are omitted. Calls follow the shape of the dose curve; as a rule, active = well fitted curve in the direction sought with a large enough effect; inconclusive = small, poorly fitted or top-dose-only effect, or effect the other way; inactive = no such curve, though single readings can be large or run the other way. Some of the results follow.
Respond with a class label; see label 1 for active, label 0 for inactive

Query: Per the records of this test, what outcome belongs to COc1ccc(C(=O)N2CCC[C@@]3(CCN(C(=O)Nc4ccccc4)C3)C2)cc1 ?
Result: label 0

Query: Per the records of this test, what outcome belongs to C/C(CC(=O)NCc1ccco1)=N\NC(=O)Cc1ccccc1 ?
Result: label 0

Query: Per the records of this test, what outcome belongs to CC(=O)N1CCC[C@@]2(CCN(c3ccccc3)C2)C1 ?
Result: label 0

Query: Per the records of this test, what outcome belongs to CC(=O)N1CCC2(CC1)CCN(c1cccc(-c3ccccc3)c1)CC2 ?
Result: label 0

Query: Per the records of this test, what outcome belongs to CC(C)(C)NC[C@H](O)COc1cccc2[nH]c(=O)[nH]c12 ?
Result: label 0

Query: Per the records of this test, what outcome belongs to O=C(Nc1cccnc1)C1COc2ccccc2O1 (centres undefined) ?
Result: label 1

Query: Per the records of this test, what outcome belongs to Cc1ccc2c(c1)C(=O)[C@@]1(O)CCN(c3ccccc3)C1=N2 ?
Result: label 1

Query: Per the records of this test, what outcome belongs to Fc1ccc(C2=Nn3c(Cc4ccccc4F)nnc3SC2)cc1 ?
Result: label 1

Query: Per the records of this test, what outcome belongs to C/C(=N\NC(=O)c1ccc(Br)cc1)c1ccccc1 ?
Result: label 1

Query: Per the records of this test, what outcome belongs to O=C(O)Cc1c[nH]c2ccc(O)cc12 ?
Result: label 0

Query: Per the records of this test, what outcome belongs to O=C(CC(=O)N/N=C\c1c(Cl)cccc1Cl)NCc1ccccc1 ?
Result: label 1

* * *

testedSystem: Cytochrome P450 2C19 (Homo sapiens) (UniProt P33261)
assayText: Cytochrome panel assay with activity outcomes; on activity, negative = inhibition: on the % scale 0 is the no-effect control and ±100 the full control effect
conditionNotes: recombinant CYP, pro-luciferin dealkylation, luminescence, p450-cyp2c19; series mostly up to 57.1 µM
The campaign covered roughly 16,000 compounds. About 5,800 (36%) were called active. Another 23% or so got no clear call; they are omitted. The list shows a part of the results.
Reported activity, negative = inhibition values for the following compounds.

Reference set (4 entries):
[[record]]
linenotation = "Clc1cc2c(c(CSC3=NCN(CC4CC4)CN3)c1)OCOC2"
readoutname = "activity, negative = inhibition"
reportedresult = "10.2% [at 11.4 µM] (inactive)"

[[record]]
linenotation = "CCOC(=O)N/N=C1/C[C@@H](O)[C@@H](O)[C@@H]2[C@@H]3C(=O)N(C4CCCCC4)C(=O)[C@H]3CC[C@H]12"
readoutname = "activity, negative = inhibition"
reportedresult = "9.98% [at 11.4 µM] (inactive)"

[[record]]
linenotation = "CN(C)Cc1cc(O)c(O)c(CN(C)C)c1"
readoutname = "activity, negative = inhibition"
reportedresult = "-24% [at 11.4 µM] (inactive)"

[[record]]
linenotation = "Cn1c(=O)n2n(c1=O)[C@H]1[C@H](O)[C@H]3O[C@@H]3/C(=N/OCc3ccccc3)[C@@H]1CC2"
readoutname = "activity, negative = inhibition"
reportedresult = "50.3% [at 11.4 µM] (inactive)"


Please look at the following compound next.
Query: Write down the reported activity, negative = inhibition (system: Cytochrome P450 2C19 (Homo sapiens) (UniProt P33261)) of COC(=O)[C@H](CCSC)NC(=O)C/C=C\[C@@H](C)CO
Result: 35.2% [at 11.4 µM] (inactive)
